# pIC50 per entry for Electric eel AChE (Electrophorus electricus)
pIC50: −log10 of the molar value.
METRIC: pIC50

# COMPOUND, QUANTITATIVE READOUT
records = [
    ("C=C(C(=O)O)C(CCCCCC)C(=O)O (stereo not drawn)", 5.81),
    ("O=C1CC(O)C(CO)O1 (stereo not drawn)", 5.71),
    ("CC(C)[C@@H](C)/C=C/[C@@H](C)[C@H]1CC[C@H]2C3=CC=C4C[C@@H](O)CC[C@]4(C)[C@H]3CC[C@]12C", 5.82),
]

###

EC50 by entry:
test: DPPH free radical scavenging assay; conditions: Table 3, unit not given in the table (μM); read-out: EC50 Antioxidant activity (DPPH•)
METRIC: EC50 (µM)

# COMPOUND, QUANTITATIVE READOUT
records = [
    ("O=C1CC(O)C(CO)O1 (centres unmarked)", 0.66),
    ("COc1ccc(O)c(C(C)(C)C)c1 [BHA, butylated hydroxyanisole, reference compound]", 0.13),
    ("CC(C)[C@@H](C)/C=C/[C@@H](C)[C@H]1CC[C@H]2C3=CC=C4C[C@@H](O)CC[C@]4(C)[C@H]3CC[C@]12C", 1.09),
    ("C=C(C(=O)O)C(CCCCCC)C(=O)O (centres unmarked)", 0.56),
    ("Cc1cc(C(C)(C)C)c(O)c(C(C)(C)C)c1 [BHT, butylated hydroxytoluene, reference compound]", 0.46),
]
